// values below are reported IC50
target: USP7 (Homo sapiens, UniProt Q93009); construct: USP7, construct USP7 (208-1102) 6*His, Viva Biotech; 6xHis (C); purchased Viva Biotech; assay: USP7 Assay A (Ubitquin-Rhodamine 110 Assay); format: biochemical; settings: USP7 activity in USP7 assay A and B (table does not say which assay per compound); read-out: USP7_IC50
Sequence (Q93009 208-1102): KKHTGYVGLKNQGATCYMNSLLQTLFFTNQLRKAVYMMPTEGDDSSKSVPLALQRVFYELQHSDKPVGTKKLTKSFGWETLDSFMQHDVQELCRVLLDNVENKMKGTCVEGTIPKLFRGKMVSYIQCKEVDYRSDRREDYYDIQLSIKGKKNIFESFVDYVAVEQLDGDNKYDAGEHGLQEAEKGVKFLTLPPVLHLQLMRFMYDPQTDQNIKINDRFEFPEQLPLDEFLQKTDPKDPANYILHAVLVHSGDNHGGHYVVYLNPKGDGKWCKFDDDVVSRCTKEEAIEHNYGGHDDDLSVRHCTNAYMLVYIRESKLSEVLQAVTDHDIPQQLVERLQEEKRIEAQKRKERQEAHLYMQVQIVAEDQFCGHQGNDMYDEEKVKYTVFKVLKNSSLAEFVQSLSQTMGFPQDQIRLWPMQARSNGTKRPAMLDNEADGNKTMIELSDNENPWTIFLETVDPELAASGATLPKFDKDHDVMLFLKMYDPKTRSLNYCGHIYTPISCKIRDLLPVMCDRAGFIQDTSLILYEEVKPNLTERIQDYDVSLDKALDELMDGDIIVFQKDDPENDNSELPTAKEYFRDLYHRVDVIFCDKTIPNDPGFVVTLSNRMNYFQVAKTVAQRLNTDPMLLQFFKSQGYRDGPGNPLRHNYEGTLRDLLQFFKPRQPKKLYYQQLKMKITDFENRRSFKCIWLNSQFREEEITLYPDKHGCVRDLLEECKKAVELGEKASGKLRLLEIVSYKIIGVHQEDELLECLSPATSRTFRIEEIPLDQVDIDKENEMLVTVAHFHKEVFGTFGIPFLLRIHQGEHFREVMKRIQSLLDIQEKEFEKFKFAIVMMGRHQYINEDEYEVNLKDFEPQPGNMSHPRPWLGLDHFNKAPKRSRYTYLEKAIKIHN
measured-property: IC50

compound=O=C(c1ccc(F)cc1)N1CCC(O)(Cn2cnc3c(cnn3-c3ccc(-c4cnn(C5CCOCC5)c4)cc3)c2=O)CC1 assay_system="USP7 (Homo sapiens, UniProt Q93009)" measured_property=IC50 test_value="0.2 to 1 µM"
compound="Cn1nccc1NC1CCC(C(=O)N2CCC(O)(Cn3cnc4c(cnn4-c4ccc(F)cc4)c3=O)CC2)CC1 (stereo not drawn) [Compound I-764]" assay_system="USP7 (Homo sapiens, UniProt Q93009)" measured_property=IC50 test_value="0.2 to 1 µM"
compound=CC1(C(=O)N2CCC(O)(Cn3cnc4c(cnn4-c4ccc(-n5cc(Cl)cn5)cc4)c3=O)CC2)CC1 assay_system="USP7 (Homo sapiens, UniProt Q93009)" measured_property=IC50 test_value="< 0.2 µM"
compound=Cc1onc(Cc2ccccc2)c1C(=O)N1CCC(O)(Cn2cnc3c(cnn3-c3ccc(F)cc3)c2=O)CC1 assay_system="USP7 (Homo sapiens, UniProt Q93009)" measured_property=IC50 test_value="< 0.2 µM"
compound="CC(=O)N1CC2CC1CN2c1ccc(-n2ncc3c(=O)n(CC4(O)CCN(C(=O)C5(C)CC5)CC4)cnc32)cc1 (stereo not drawn)" assay_system="USP7 (Homo sapiens, UniProt Q93009)" measured_property=IC50 test_value="0.2 to 1 µM"
compound=C[C@@H]1CN(c2ccc(-n3ncc4c(=O)n(CC5(O)CCN(C(=O)C6(C)CC6)CC5)cnc43)cc2)C[C@H](C)N1C assay_system="USP7 (Homo sapiens, UniProt Q93009)" measured_property=IC50 test_value="< 0.2 µM"
compound="O=C(C1CC(Nc2ccccn2)C1)N1CCC(O)(Cn2cnc3c(cnn3-c3ccc(F)cc3)c2=O)CC1 (stereo not drawn) [Compound I-1034]" assay_system="USP7 (Homo sapiens, UniProt Q93009)" measured_property=IC50 test_value="1 to 10 µM"
compound=O=C(c1ccc(-n2cc(CO)cn2)cc1)N1CCC(O)(Cn2cnc3c(cnn3-c3ccc(F)cc3)c2=O)CC1 assay_system="USP7 (Homo sapiens, UniProt Q93009)" measured_property=IC50 test_value="1 to 10 µM"
compound=CC1(C(=O)N2CCC(O)(Cn3cnc4c(cnn4-c4ccc(-n5ccc(F)n5)cc4)c3=O)CC2)CC1 assay_system="USP7 (Homo sapiens, UniProt Q93009)" measured_property=IC50 test_value="0.2 to 1 µM"

----------
biological target: USP7 (Homo sapiens, UniProt Q93009); construct: USP7, construct USP7 (208-1102) 6*His, Viva Biotech; 6xHis (C); purchased Viva Biotech; experiment: USP7 Assay A (Ubitquin-Rhodamine 110 Assay); format: biochemical; settings: USP7 assay A and B (table does not say which assay per compound); read-out: USP7_IC50
measured-property: IC50

smiles_repr=O=C(c1ccc(Cl)cc1)N1CCC(O)(Cn2cnc3c(cnn3-c3ccccc3)c2=O)CC1 test_value="1000 to 10000 nM"
smiles_repr=Cn1cnc(C(=O)N2CCC(O)(Cn3cnc4c(cnn4-c4ccccc4)c3=O)CC2)c1 test_value="1000 to 10000 nM"
smiles_repr=O=C(c1cnc(-c2ccccc2)o1)N1CCC(O)(Cn2cnc3c(cnn3-c3ccccc3)c2=O)CC1 test_value="200 to 1000 nM"
smiles_repr=O=C(c1ccc(F)cc1F)N1CCC(O)(Cn2cnc3c(cnn3-c3ccccc3)c2=O)CC1 test_value="1000 to 10000 nM"
smiles_repr=Cc1ccc(-n2ncc3c(=O)n(CC4(O)CCN(C(=O)c5cnc(C)o5)CC4)cnc32)cc1 test_value="200 to 1000 nM"
smiles_repr=CN(C)C(=O)N1CCC(O)(Cn2cnc3c(cnn3-c3cccc(-n4cc(Cl)cn4)c3)c2=O)CC1 test_value="> 10000 nM"
smiles_repr=O=C(C1CC1)N1CCC(O)(Cn2cnc3c(cnn3-c3ccc(Cl)cc3Cl)c2=O)CC1 test_value="> 10000 nM"
smiles_repr=CN(C)CCNC(=O)c1ccc(-n2ncc3c(=O)n(CC4(O)CCN(C(=O)C5CC5)CC4)cnc32)cc1 test_value="200 to 1000 nM"
smiles_repr=N#Cc1cccc(-c2cccc(-n3ncc4c(=O)n(CC5(O)CCN(C(=O)C6CC6)CC5)cnc43)c2)c1 test_value="1000 to 10000 nM"
smiles_repr=CS(=O)(=O)Nc1ccc(C(=O)N2CCC(O)(Cn3cnc4c(cnn4-c4ccccc4)c3=O)CC2)cc1 test_value="200 to 1000 nM"
smiles_repr=O=C(C1CC1)N1CCC(O)(Cn2cnc3c(cnn3C3CCCCC3)c2=O)CC1 test_value="> 10000 nM"
smiles_repr=C[C@H](CC(=O)N1CCC(O)(Cn2cnc3c(cnn3-c3ccc(-c4ccccc4)cc3)c2=O)CC1)n1cccn1 test_value="1000 to 10000 nM"
smiles_repr=Cc1ccc(-n2ncc3c(=O)n(CC4(O)CCN(C(=O)C[C@H](c5ccccc5)C(F)(F)F)CC4)cnc32)cc1 test_value="1000 to 10000 nM"
smiles_repr=O=C(c1ccccc1)N1CCC(O)(Cn2cnc3c(cnn3-c3cccc(CO)c3)c2=O)CC1 test_value="1000 to 10000 nM"
smiles_repr=O=C(c1cccc(CN2CCCC2)c1)N1CCC(O)(Cn2cnc3c(cnn3-c3ccc(F)cc3)c2=O)CC1 test_value="> 10000 nM"
smiles_repr=Cc1ccc(C(=O)N2CCC(O)(Cn3cnc4c(cnn4-c4ccc(Cl)cc4)c3=O)CC2)cc1F test_value="1000 to 10000 nM"

----------
biological target: USP7 (Homo sapiens, UniProt Q93009); construct: USP7, construct USP7 (208-1102) 6*His, Viva Biotech; 6xHis (C); purchased Viva Biotech; assay: USP7 Assay A (Ubitquin-Rhodamine 110 Assay); type: biochemical; conditions: USP7 assay A and B (table does not say which assay per compound); read-out: USP7_IC50
pIC50: −log10 of the molar value.
// values below are reported pIC50
measured-property: pIC50

compound="CC1(C(=O)N2CCC(O)(Cn3cnc4c(cnn4-c4ccc(-c5cnn(C(F)F)c5)cc4)c3=O)CC2)CC1 [Compound I-1800]" test_value="> 6.70"
compound="O=C(c1cccc(CN2CCCC2)c1)N1CCC(O)(Cn2cnc3c(cnn3-c3ccc(Cl)cc3)c2=O)CC1 [Compound I-1127]" test_value="5.00 to 6.00"
compound="O=C(Nc1ccc(-n2ncc3c(=O)n(CC4(O)CCN(C(=O)C5CC5)CC4)cnc32)cc1)Nc1cccnc1 [Compound I-1448]" test_value="5.00 to 6.00"
